# Lookup of reported nonsense suppression keyed by entry
B1: tRNA (parent)
chain: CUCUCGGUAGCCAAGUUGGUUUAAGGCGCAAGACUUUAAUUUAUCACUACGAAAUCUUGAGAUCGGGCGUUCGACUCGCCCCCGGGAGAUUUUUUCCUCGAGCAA

# Variants of: B1
# PROTOCOL_NOTES: nonsense suppression (GFP-seq) (ratio to wild type); higher = more function; SUP4oc tRNA, yeast GFP reporter sort-seq
Variants at the floor of the assay were thinned out.
Give the value as a plain number.

Example variants with recorded nonsense suppression:
ORDERED_RESIDUES: CUCUCGGUAGCCAAGUUGGUUUAAGGCGCAAGACUUUAAUUUAUCACUACGAAACCUUGAGAUGGGGCGUUCGACUCGCCCCCGGGAGAUUUUUUCCUCGAGCAA [U55C C64G]
nonsense suppression: 0.0515
--
ORDERED_RESIDUES: CUCUCGGUAGCCAAGUUGGUUUAAGGCGCAAGACUUUAAUUUAUCACUACGAAAUCUUGAGAUCGGGCGUUCGACCCUCCCCCGGGAGAUUUUUUCCUCGAGCAA [U76C G78U]
nonsense suppression: 0.0507
--
ORDERED_RESIDUES: CUCUCGGUAGCCAAGUUGGUUUAAAUCGCAAGACUUUAAUUUAUCACUACGAAAUGUUGAGAUCGGGCGUUCGACUCGCCCCCGGGAGAUUUUUUCCUCGAGCAA [G25A G26U C56G]
nonsense suppression: 0.0585
--
ORDERED_RESIDUES: CUCUCGGUAGCCUAGAUGGUUUAAGGCGCAAGACUUUAAUUUAUCACUACGAAAUCUUGAGAUCGGGCGUUCGACUCGCCCCCGUGAGAUUUUUUCCUCGAGCAA [A13U U16A G85U]
nonsense suppression: 0.173
--
ORDERED_RESIDUES: CUCUCGGUCGCCAAGUUGGUUUAAGGCGCAAGACUUUAAUUUAUCACUACGAAAUCUUGAGAUCGGGCGUUCGACCCGCCCCCGGGAGAUUUUUUCCUCGAGCAA [A9C U76C]
nonsense suppression: 0.929
--
ORDERED_RESIDUES: CUCUCGGUAGCCAAGUUGGUUUAAGGCGCAAGACUUUAAUUUAUCACUACGAAAUCUUGACAUCGGGCGUUGGACUCGCCCCCGGGAGAUUUUUUCCUCGAGCAA [G61C C72G]
nonsense suppression: 0.0291
--
ORDERED_RESIDUES: CUUUCGGUAGCCAAGGUGGUUUAAGGCGCAAGACUUUAAUUUAUCACUACGAAAUCUUGAGAUCGGGCGUUCGACUCGCCCCCGGGAGAUUUUUUCCUCGAGCAA [C3U U16G]
nonsense suppression: 0.22
--
ORDERED_RESIDUES: CUCUCGGUUGCCAAGAUGGUUUAAGGCGCAAGACUUUAAUUUAUCACUACGAAAUCUUGAGAUCGGGCGUUCGACUCGCCCCCGGGAGAUUUUUUCCUCGAGCAA [A9U U16A]
nonsense suppression: 0.13
--
ORDERED_RESIDUES: CUCUCGGUAGCCUAGUUGGUUUAAGGCGCAAGACUUUAAUUUAUCACUACGAAAUCUUGAGAUCGGGCGUUCGAUUCGCCCCCGGGAGAUUUUUUCCUCGAGCAA [A13U C75U]
nonsense suppression: 1.22
--
ORDERED_RESIDUES: CUCUCGGUAGCCAAGUUGGUUUAAGGCGCUAGACUUUAAUUUAUCACUACGAAAUCUUGAGAUCGGGCGUUCGACUCGCCACCGGGAGAUUUUUUCCUCGAGCAA [A30U C81A]
nonsense suppression: 0.0383

Q) Given CUCUCGGUAGCCAAGGUGGUUUAAGGCGCAAGACUUUAAUUUAUCACUACGAACUCUUGAGAUCGGGCGUUCGACUCGCCUCCGGGAGAUUUUUUCCUCGAGCAA [U16G A54C C81U] , state its recorded nonsense suppression.
A) 0.0601

Q) # iterate: CUCUCGGUAGCAAAGUUGGUUUACGGCGCAAGACUUUAAUUUAUCACUACGAAAUCUUGAGAUCGGGCGUUCGACUCGCCCCCGGGAGAUUUUUUCCUCGAGCAA [C12A A24C]
A) 0.035

Q) Now this one: CUCUCGGUAGCCAAAUUGGUUUAAGGCGCAAGACUUUAAUUUAUCACUACGAAAUCUUGACAUCGGGCGUUCGACUCGCCCCCGGGAGAUUUUUUCCUCGAGCAA [G15A G61C]
A) 0.034
